- Tested System: Fcf2 (recombinant dTDP-D-Glcfucofuranose mutase) (Escherichia coli)
- Construct: The entire ORF encodes a protein composed of 377 amino acids; His6 (N); made in house; host or cells: E. coli BL21
- Sequence (Q6E7F1 whole entry): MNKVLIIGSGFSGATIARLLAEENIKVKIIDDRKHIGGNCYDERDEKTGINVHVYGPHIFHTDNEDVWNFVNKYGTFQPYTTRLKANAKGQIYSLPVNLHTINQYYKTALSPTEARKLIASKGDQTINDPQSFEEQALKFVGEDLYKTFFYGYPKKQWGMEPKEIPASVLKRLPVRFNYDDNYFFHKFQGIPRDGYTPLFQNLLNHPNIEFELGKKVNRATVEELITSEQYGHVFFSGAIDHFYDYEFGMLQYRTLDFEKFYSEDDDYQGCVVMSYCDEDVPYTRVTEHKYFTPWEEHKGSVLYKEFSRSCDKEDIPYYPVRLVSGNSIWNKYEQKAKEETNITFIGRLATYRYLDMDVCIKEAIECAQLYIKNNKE
- Assay Summary: Divalent cation requirements of Fcf2 (effects of cations on enzyme activity)
- Type: biochemical, E. coli O52
- Applied Conditions: in the presence of 5 mM divalent ion; 9.5 without ion
Property Label: Transformation rate (%)

>>> df
           cpd_smiles                             tested_system           property_label  test_value
0  [Cl-].[Cl-].[Co+2]  Fcf2 (recombinant dTDP-D-Glcfucofuranose mutase) (Escherichia coli)  Transformation rate (%)         8.8
1        [Cl][Fe][Cl]  Fcf2 (recombinant dTDP-D-Glcfucofuranose mutase) (Escherichia coli)  Transformation rate (%)         9.1
2  [Cl-].[Cl-].[Mg+2]  Fcf2 (recombinant dTDP-D-Glcfucofuranose mutase) (Escherichia coli)  Transformation rate (%)         9.7
3  [Ca+2].[Cl-].[Cl-]  Fcf2 (recombinant dTDP-D-Glcfucofuranose mutase) (Escherichia coli)  Transformation rate (%)         9.6
4        [Cl][Mn][Cl]  Fcf2 (recombinant dTDP-D-Glcfucofuranose mutase) (Escherichia coli)  Transformation rate (%)         5.4
5        [Cl][Cu][Cl]  Fcf2 (recombinant dTDP-D-Glcfucofuranose mutase) (Escherichia coli)  Transformation rate (%)           0
